Test: Test of blood kinetics in the rats
Assay type: in vivo
Settings: rat, plasma, 2 mg/kg; fasted Wistar male rats, oral single dose of mixed solution of five compounds, each compound 2 mg/5 mL/kg, n=5, LC-MS; read-out: Cmax (maximum concentration in plasma)
reported-metric: log10(Cmax) (log10 of the value in ng/mL)
Could you please treat all values as log10 of Cmax in ng/mL?

Example entries begin here.
compound	observed-value
O=C(C=Cc1c(F)cccc1F)N[C@@H](Cc1c[nH]c2ccccc12)C(=O)O [Compound 13]	3.87
Cn1cc(C[C@H](NC(=O)C=Cc2ccccc2)C(=O)O)c2ccccc21 [Compound 29]	4.70
C=CC(=O)N[C@@H](Cc1ccc(OC)cc1)C(=O)O [Compound 38, N-Acryloyl-O^4-methyl-L-tyrosine]	3.45

Exercise: Data request, read-out log10(Cmax), for COc1ccc(C[C@H](NC(=O)C=Cc2ccc(C#N)cc2)C(=O)O)cc1 [Compound 56]
Solution: 3.54

Exercise: Need log10(Cmax) of Cn1cc(C[C@H](NC(=O)C=Cc2ccccc2F)C(=O)O)c2ccccc21 [Compound 27] , thanks.
Solution: 4.73

Exercise: Query: log10(Cmax); subject: COc1ccc(C[C@H](NC(=O)C=Cc2ccccc2F)C(=O)O)cc1 [Compound 40]
Solution: 4.69

Exercise: So what's the measured log10(Cmax) for this one? O=C(C=Cc1ccccc1F)N[C@H](Cc1c[nH]c2ccccc12)C(=O)O [Compound 24]
Solution: 4.18

Exercise: Entry under review: Cn1cc(C[C@H](NC(=O)C=Cc2cccc(C#N)c2)C(=O)O)c2ccccc21 [Compound 34] . Reported log10(Cmax)?
Solution: 3.51

Exercise: Quick one: log10(Cmax) for COc1ccc(C[C@H](NC(=O)C=Cc2ccc(F)cc2F)C(=O)O)cc1 [Compound 51] ?
Solution: 4.52

Exercise: Entry O=C(C=Cc1ccc(F)cc1F)N[C@@H](Cc1c[nH]c2ccccc12)C(=O)O [Compound 14] : reported log10(Cmax) = ?
Solution: 3.68
